# targetOfAssay: UniProt O60674
# Sequence (O60674 whole entry, the tested form may be a part): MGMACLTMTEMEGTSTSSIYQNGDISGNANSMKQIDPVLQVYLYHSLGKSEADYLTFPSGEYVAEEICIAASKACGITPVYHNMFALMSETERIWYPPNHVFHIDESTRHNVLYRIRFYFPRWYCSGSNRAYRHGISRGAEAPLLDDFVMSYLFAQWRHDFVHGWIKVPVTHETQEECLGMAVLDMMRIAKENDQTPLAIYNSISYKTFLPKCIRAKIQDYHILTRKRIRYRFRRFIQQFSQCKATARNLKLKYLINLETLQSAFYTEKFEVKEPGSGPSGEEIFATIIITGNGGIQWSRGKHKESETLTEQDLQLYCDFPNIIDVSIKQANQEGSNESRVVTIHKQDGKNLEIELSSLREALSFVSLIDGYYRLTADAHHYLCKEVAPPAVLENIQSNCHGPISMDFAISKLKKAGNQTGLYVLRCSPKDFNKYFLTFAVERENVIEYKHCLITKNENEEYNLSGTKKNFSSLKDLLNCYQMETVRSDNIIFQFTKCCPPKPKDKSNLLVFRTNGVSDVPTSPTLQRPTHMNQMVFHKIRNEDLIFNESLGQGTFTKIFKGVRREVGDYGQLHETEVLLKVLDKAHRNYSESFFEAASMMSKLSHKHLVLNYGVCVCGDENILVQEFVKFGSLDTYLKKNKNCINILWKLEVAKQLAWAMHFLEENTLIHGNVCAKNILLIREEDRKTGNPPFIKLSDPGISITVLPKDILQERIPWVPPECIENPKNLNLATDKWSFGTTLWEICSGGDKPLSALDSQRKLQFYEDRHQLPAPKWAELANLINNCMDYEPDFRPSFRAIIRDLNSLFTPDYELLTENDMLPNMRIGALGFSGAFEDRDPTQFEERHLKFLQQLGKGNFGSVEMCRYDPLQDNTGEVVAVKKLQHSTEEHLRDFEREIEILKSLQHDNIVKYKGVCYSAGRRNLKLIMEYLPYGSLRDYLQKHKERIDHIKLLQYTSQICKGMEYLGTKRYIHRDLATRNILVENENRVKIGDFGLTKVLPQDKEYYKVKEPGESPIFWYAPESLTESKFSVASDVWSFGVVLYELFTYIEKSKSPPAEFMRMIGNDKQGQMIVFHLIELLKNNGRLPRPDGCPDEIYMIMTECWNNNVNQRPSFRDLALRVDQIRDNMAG
# protocol: Inhibition of human recombinant N-terminal hexahistidine tagged JAK2 JH1 catalytic domain (835 to 1132 residues) expressed in baculovirus infected Sf9 cells using Tyr6 peptide as substrate incubated for 30 secs under shaking condition measured after 1 hr by Z'-LYTE assay
outcomeMeasure: IC50 (nM)
The response must be a number in nM with no trailing unit.

Solved cases (2 shown):
CC(Oc1cc(-c2cccnc2)cnc1N)c1c(Cl)ccc(F)c1Cl (stereo not drawn): 3050
CC(Oc1cc(-c2cnn(C3CCNCC3)c2)cnc1N)c1cc(F)ccc1Cl (stereo not drawn): 6

Attention now shifts to the item below.
query: What measured IC50 is associated with CC(Oc1cc(-c2cnn(C3CCNCC3)c2)cnc1N)c1ccccc1 (stereo not drawn) on UniProt O60674?
result: 215

Origin of measurements: ChEMBL document CHEMBL4340536
